DPP-IV Percent Inhibition at 300 nM by entry:
Biological target: DPP-IV (Homo sapiens, UniProt P27487)
Construct: purchased Enzyme Systems Products SPE-01
Sequence (P27487 whole entry, species assumed): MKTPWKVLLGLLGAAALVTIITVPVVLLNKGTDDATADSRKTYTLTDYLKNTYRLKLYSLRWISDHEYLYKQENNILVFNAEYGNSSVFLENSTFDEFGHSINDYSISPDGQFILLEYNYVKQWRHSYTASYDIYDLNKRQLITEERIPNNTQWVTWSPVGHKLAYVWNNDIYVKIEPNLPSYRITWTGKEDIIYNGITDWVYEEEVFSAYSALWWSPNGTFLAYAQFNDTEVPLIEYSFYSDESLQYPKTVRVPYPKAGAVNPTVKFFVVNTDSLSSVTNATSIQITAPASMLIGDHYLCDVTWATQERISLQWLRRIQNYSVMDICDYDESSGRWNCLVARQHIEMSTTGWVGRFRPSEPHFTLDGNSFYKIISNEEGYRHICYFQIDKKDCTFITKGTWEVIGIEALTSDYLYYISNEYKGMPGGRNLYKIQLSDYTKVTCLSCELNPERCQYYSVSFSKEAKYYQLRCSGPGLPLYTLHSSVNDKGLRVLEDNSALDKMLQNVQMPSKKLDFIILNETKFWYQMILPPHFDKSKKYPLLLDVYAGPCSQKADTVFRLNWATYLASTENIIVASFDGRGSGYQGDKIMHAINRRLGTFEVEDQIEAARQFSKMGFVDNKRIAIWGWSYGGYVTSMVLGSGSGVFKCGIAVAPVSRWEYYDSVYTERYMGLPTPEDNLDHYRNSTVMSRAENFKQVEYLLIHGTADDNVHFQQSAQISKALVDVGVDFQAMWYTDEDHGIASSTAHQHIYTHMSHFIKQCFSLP
Test: In vitro assay for dipeptidyl peptidase inhibition
Type: biochemical
Conditions: at 300 nM; n-value given in brackets

Worked set:
# COMPOUND, PROPERTY_MEASURED, REPORTED_RESULT
rows = [
    ("N[C@H]1CN(c2ncnc3cc(OS(=O)(=O)c4ccc(F)cc4)ccc23)C[C@@H]1N1CCCCC1=O [Example 142]", "DPP-IV Percent Inhibition at 300 nM", "47/3%(4)"),
    ("COc1cc2c(cc1OC)CN(c1ncnc(N3C[C@H](N)[C@@H](N4CCCCC4=O)C3)n1)CC2.O=C(O)C(F)(F)F [Example 59]", "DPP-IV Percent Inhibition at 300 nM", "44.3%(4)"),
    ("N[C@H]1CN(c2ncnc(N3CC(Oc4ccc(F)c(F)c4)C3)n2)C[C@@H]1N1CCCCC1=O.O=C(O)C(F)(F)F [Example 49]", "DPP-IV Percent Inhibition at 300 nM", "19.6%(4)"),
    ("COC1(C)CCN(c2ncnc(N3C[C@H](N)[C@@H](N4CCCCC4=O)C3)n2)CC1.O=C(O)C(F)(F)F [Example 36]", "DPP-IV Percent Inhibition at 300 nM", "22.2%(4)"),
    ("CCOc1ncc2c(n1)CCN(c1ncnc(N3C[C@H](N)[C@@H](N4CCCCC4=O)C3)n1)C2.O=C(O)C(F)(F)F [Example 72]", "DPP-IV Percent Inhibition at 300 nM", "13.1%(4)"),
]

# next compound below
For record CC(Oc1cc(N2C[C@H](N)[C@@H](N3CCCCC3=O)C2)ncn1)C(F)(F)F.O=C(O)C(F)(F)F (stereo partly drawn) [Example 93] the listed DPP-IV Percent Inhibition at 300 nM is 13.8%(4)
